Target: Adenosine receptor A3 (Mus musculus) (UniProt Q61618)
Sequence (whole entry): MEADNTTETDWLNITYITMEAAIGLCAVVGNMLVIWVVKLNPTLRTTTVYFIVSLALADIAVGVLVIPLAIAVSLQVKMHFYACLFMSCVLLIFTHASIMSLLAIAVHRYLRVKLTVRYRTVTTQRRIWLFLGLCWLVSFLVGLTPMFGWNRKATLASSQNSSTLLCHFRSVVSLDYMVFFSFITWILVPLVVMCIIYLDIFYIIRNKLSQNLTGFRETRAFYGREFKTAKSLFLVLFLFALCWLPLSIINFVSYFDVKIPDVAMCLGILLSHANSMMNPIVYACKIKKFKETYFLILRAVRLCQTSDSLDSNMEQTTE
Test: Agonist activity at mouse adenosine A3 receptor expressed in HEK293 cell membranes assessed as inhibition of forskolin-stimulated cAMP production preincubated for 30 mins prior to forskolin-treatment measured after 15 mins by ELISA relative to control
Type: functional, cell-based
measure: Emax (%)
Write the number in % without appending the unit.

Answered cases to consult:
>  <smilesText>
CNC(=O)[C@@]12C[C@@H]1[C@@H](n1cnc3c(NCc4cccc(Cl)c4)nc(C#Cc4cccc(S(=O)(=O)O)c4)nc31)[C@H](O)[C@@H]2O

>  <measure>
Emax

>  <measValue>
50

$$$$
>  <smilesText>
CNC(=O)[C@H]1O[C@@H](n2cnc3c(NCc4cccc(I)c4)nc(Cl)nc32)[C@H](O)[C@@H]1O

>  <measure>
Emax

>  <measValue>
41

$$$$
>  <smilesText>
CNC(=O)[C@@]12C[C@@H]1[C@@H](n1cnc3c(NCc4cccc(Cl)c4)nc(C#Cc4ccc(S(=O)(=O)O)cc4)nc31)[C@H](O)[C@@H]2O

>  <measure>
Emax

>  <measValue>
45

$$$$

We next turn to a different molecule, shown below.
Fill in: Emax of CNC(=O)[C@@]12C[C@@H]1[C@@H](n1cnc3c(NCCc4ccccc4)nc(C#Cc4ccccc4)nc31)[C@H](O)[C@@H]2O is ___
47
